The origin of these recorded values is PubChem BioAssay AID1159580.

Experiment: chemical genetic growth profiling, strain panel (AID 1159580);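 note: tested at 20 µM; growth read once vehicle control cultures reached saturation at 30 °C; 1 = growth at the plate median or of vehicle wells; lower values mean less growth of the strain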
Conditions: S. cerevisiae deletion strains, growth OD, locus YML070W, strain DAK1
Out of some 5,500 compounds screened, about 2,000 (36%) were called active. Roughly 18% stayed inconclusive and do not appear here. Cut-off read from the data, not from the text of the source: active = normalized growth mostly below about 0.91 (no sharp cut-off); inconclusive = no clear call, values can overlap the other calls; inactive = mostly above about 0.92. The list shows a part of the results.
Select the matching outcome among active, inactive

Request: Could you please tell me the result logged for `O=S(=O)(Nc1cc(C(F)(F)F)ccc1F)c1cc(C(F)(F)F)ccc1Cl` in this assay?
Result: inactive

Request: Could you please tell me the result logged for `COc1cc(N=Cc2cc(Cl)cc(Cl)c2OS(=O)(=O)c2ccc(C)cc2)c(OC)cc1Cl` in this assay?
Result: inactive

Request: Could you please tell me the result logged for `CC(=O)C(Sc1nc2ccccc2s1)C(C)=O` in this assay?
Result: inactive

Request: Could you please tell me the result logged for `COc1cc(N=Cc2cc(Cl)cc(Cl)c2OC(=O)c2cc(OC)c(OC)c(OC)c2)c(OC)cc1Cl` in this assay?
Result: active

Request: Could you please tell me the result logged for `COc1cc(Cl)c(NS(=O)(=O)c2cc(Br)c(Br)s2)c(OC)c1` in this assay?
Result: inactive

Others:
Request: Could you please tell me the result logged for CCCCCCCC1CCC/C1=N/OC(=O)c1cccs1 (stereo not drawn) in this assay?
Result: inactive

Request: Could you please tell me the result logged for `O=C(Nc1ccc(Cl)cc1Cl)c1cnccc1C(F)(F)F` in this assay?
Result: inactive

Request: Could you please tell me the result logged for `N=C(N)SCc1nc(-c2ccc(Cl)cc2)no1` in this assay?
Result: inactive

Request: Could you please tell me the result logged for `Nc1cc(-c2ccc(OC(F)(F)F)cc2)nn1-c1ccc(Cl)c(Cl)c1` in this assay?
Result: active

Request: Could you please tell me the result logged for `N/C(=N/OC(=O)c1ccc(Cl)cc1)c1ccc(F)cc1F` in this assay?
Result: active

Request: Could you please tell me the result logged for `CC(C)(O)C#Cc1ccc(/C=N\Nc2ccccc2)cc1` in this assay?
Result: active

* * *

Assay: chemical genetic growth profiling, strain panel (AID 1159580)
Settings: S. cerevisiae deletion strains, growth OD, locus YGL240W, strain doc1, stronger effect = lower value
In all, about 5,500 compounds went through this assay and about 2,000 (36%) were called active. Inconclusive results (about 18%) are left out. The list shows a part of the results.
observable: normalized growth
Answer with the value's number alone.

Some solved cases for reference:
Request: Return the recorded normalized growth value; entry: `NCc1ccc(S(N)(=O)=O)cc1`
Result: 1.04

Request: Return the recorded normalized growth value; entry: Nc1c(Br)cc(Br)cc1CNC1CCC(O)CC1 (stereo not given)
Result: 0.981

Request: Return the recorded normalized growth value; entry: `C=CCc1cc(OC)c2c(c1OC)OCO2`
Result: 0.839

Request: Return the recorded normalized growth value; entry: `CCCc1cc(OC)c2c(c1)OCO2`
Result: 1

Then there is this compound:
Request: Return the recorded normalized growth value; entry: `COP(=S)(OC)Oc1ccc(SC)c(C)c1`
Result: 0.989

* * *

Parameter: normalized growth. Scope: all listed entries.
Test: chemical genetic growth profiling, strain panel (AID 1159580);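 note: tested at 20 µM; growth read once vehicle control cultures reached saturation at 30 °C; 1 = growth at the plate median or of vehicle wells; lower values mean less growth of the strain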
Settings: S. cerevisiae deletion strains, growth OD, locus YGL227W, strain vid30, stronger effect = lower value
Among all 5,500 compounds or so, about 2,000 (36%) were called active. Inconclusive results (about 18%) are left out. The list shows a part of the results.
Answer with the value's number alone.

Some solved cases for reference:
Request: Return the recorded normalized growth value; entry: CC12CCC3C(CC=C4CC(O)CCC43C)C1CCC2=O (configuration not stated)
Result: 1.01

Request: Return the recorded normalized growth value; entry: Nc1nc(N)c2nc(CNc3ccc(C(=O)NC(CCC(=O)O)C(=O)O)cc3)cnc2n1 (configuration not stated)
Result: 1

Request: Return the recorded normalized growth value; entry: CC(=O)O[C@H]1CC[C@@]2(C)C(=CCC3C2CC[C@@]2(C)C3CC[C@@H]2C(C)CCCC(C)C)C1 (some centres not stated)
Result: 0.978

Request: Return the recorded normalized growth value; entry: `O=C(O)P(=O)(O)O`
Result: 0.982

Others:
Request: Return the recorded normalized growth value; entry: CN(Cc1cnc2nc(N)nc(N)c2n1)c1ccc(C(=O)NC(CCC(=O)O)C(=O)O)cc1 (configuration not stated)
Result: 0.922

Request: Return the recorded normalized growth value; entry: NC(=O)c1cc[n+](CC2=C(C(=O)O)N3C(=O)C(NC(=O)C(c4ccccc4)S(=O)(=O)[O-])C3SC2)cc1 (configuration not stated)
Result: 1.01

Request: Return the recorded normalized growth value; entry: `O=c1cccc2n1C[C@H]1CNCC2C1`
Result: 1.01

Request: Return the recorded normalized growth value; entry: CCOC(=O)CCCCCCCCCCCCC1C=CCC1 (configuration not stated)
Result: 0.962

Request: Return the recorded normalized growth value; entry: `CCCN(CCC)CCc1cccc2c1CC(=O)N2`
Result: 0.972

Request: Return the recorded normalized growth value; entry: `Nc1nc2ncc(CNc3ccc(C(=O)N[C@@H](CCC(=O)O)C(=O)O)cc3)nc2c(=O)[nH]1`
Result: 0.993

Request: Return the recorded normalized growth value; entry: Nc1nc2c(c(=O)[nH]1)N(C=O)C(CNc1ccc(C(=O)N[C@@H](CCC(=O)O)C(=O)O)cc1)CN2 (some centres not stated)
Result: 0.964

Request: Return the recorded normalized growth value; entry: `Oc1ccc(/C=C/c2cc(O)cc(O)c2)cc1`
Result: 0.991

Request: Return the recorded normalized growth value; entry: `CC1=C(/C=C/C(C)=C/C=C/C(C)=C\C(=O)O)C(C)(C)CCC1`
Result: 0.974

Request: Return the recorded normalized growth value; entry: N[C@@H](CCC(=O)N[C@@H](CCSC(CC(=O)O)C(=O)O)C(=O)NCC(=O)O)C(=O)O (some centres not stated)
Result: 0.999

Request: Return the recorded normalized growth value; entry: `CC1=C(/C=C/C(C)=C/C=C/C(C)=C/C(=O)O)C(C)(C)CCC1`
Result: 1.03

* * *

Assay: chemical genetic growth profiling, strain panel (AID 1159580);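 note: tested at 20 µM; growth read once vehicle control cultures reached saturation at 30 °C; 1 = growth at the plate median or of vehicle wells; lower values mean less growth of the strain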
Details: S. cerevisiae deletion strains, growth OD, locus YER167W, strain BCK2, stronger effect = lower value
Out of some 5,500 compounds screened, about 2,000 (36%) were called active. About 18% were inconclusive and are not listed. The list shows a part of the results.
Parameter: normalized growth. Scope: all listed entries.
Answer with the value's number alone.

Request: Return the recorded normalized growth value; entry: CC(C)C1=CC2=CCC3[C@](C)(CCC[C@]3(C)C(=O)O)C2CC1 (some centres not stated)
Result: 0.994

Request: Return the recorded normalized growth value; entry: `CC[C@]12CCCN3CCc4c(n(c5ccccc45)C(=O)C1)[C@@H]32`
Result: 1

Request: Return the recorded normalized growth value; entry: CC12CCCC(O)(C1)C1CC(C)(C)C1CC2 (configuration not stated)
Result: 0.992

Request: Return the recorded normalized growth value; entry: `CCOc1ccc2c(c1)C(C)=CC(C)(C)N2`
Result: 1

Request: Return the recorded normalized growth value; entry: `Nc1nc2ncc(CNc3ccc(C(=O)N[C@@H](CCC(=O)O)C(=O)O)cc3)nc2c(=O)[nH]1`
Result: 0.99

Others:
Request: Return the recorded normalized growth value; entry: `COc1ccc(-c2cc(C(F)F)nn2-c2ccc(S(N)(=O)=O)cc2)cc1F`
Result: 1.01

Request: Return the recorded normalized growth value; entry: `O=C1CN(/N=C\c2ccc([N+](=O)[O-])o2)C(=O)N1`
Result: 0.985

Request: Return the recorded normalized growth value; entry: Nc1nc(N)c2nc(CNc3ccc(C(=O)NC(CCC(=O)O)C(=O)O)cc3)cnc2n1 (configuration not stated)
Result: 1

Request: Return the recorded normalized growth value; entry: `CCOC(=O)c1ccc(N)cc1`
Result: 1

Request: Return the recorded normalized growth value; entry: CC1(C)CC2C1CCC1(C)OC1CCC2(C)O (configuration not stated)
Result: 1.01

* * *

Assay: chemical genetic growth profiling, strain panel (AID 1159580);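 note: tested at 20 µM; growth read once vehicle control cultures reached saturation at 30 °C; 1 = growth at the plate median or of vehicle wells; lower values mean less growth of the strain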
Details: S. cerevisiae deletion strains, growth OD, locus YML124C, strain tub3, stronger effect = lower value
Among all 5,500 compounds or so, about 2,000 (36%) were called active. Inconclusive results (about 18%) are left out. Some of the results follow.
Threshold check on normalized growth: strictly below 1 is true (1); on or above 1 is false (0).

Request: Input `c1cc2c(cc1[C@H]1OC[C@H]3[C@@H]1CO[C@H]3c1ccc3c(c1)OCO3)OCO2` ; condition: normalized growth strictly below 1. Does it hold?
Result: true (1)

Request: Input C#C[C@]1(O)CCC2C3CCc4cc(O)ccc4C3CC[C@@]21C (some centres undefined) ; condition: normalized growth strictly below 1. Does it hold?
Result: false (0)

Request: Input CCOC(=O)CCCCCCCCCCCCC1C=CCC1 (centres undefined) ; condition: normalized growth strictly below 1. Does it hold?
Result: true (1)

Request: Input `OC/C=C/c1ccc(O)c(O)c1` ; condition: normalized growth strictly below 1. Does it hold?
Result: true (1)

Request: Input `CCn1cc(C(=O)O)c(=O)c2ccc(C)nc21` ; condition: normalized growth strictly below 1. Does it hold?
Result: true (1)

Others:
Request: Input CC(=O)OCC(=O)[C@@]12OC(C)(C)O[C@@H]1CC1C3C[C@H](F)C4=CC(=O)C=C[C@]4(C)[C@@]3(F)[C@@H](O)C[C@@]12C (some centres undefined) ; condition: normalized growth strictly below 1. Does it hold?
Result: false (0)
